B1: Pistol ribozyme (parent)
chain: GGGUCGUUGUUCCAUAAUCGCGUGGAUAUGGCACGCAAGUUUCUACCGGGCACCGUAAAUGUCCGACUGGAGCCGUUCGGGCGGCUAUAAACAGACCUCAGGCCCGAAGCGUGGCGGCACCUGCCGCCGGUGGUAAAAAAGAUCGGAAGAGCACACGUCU

Variants of: B1
Test: aptazyme ON/OFF ratio, guanine; higher = stronger switching; co-transcriptional cleavage with and without guanine
ASSAY METRIC: aptazyme ON/OFF ratio
Number only, no unit.

Supply recorded aptazyme ON/OFF ratio for U8G G9U U10G U11A C12A C13A here.
1.04

Let me know recorded aptazyme ON/OFF ratio for U7A U8C U10A U11A C12A , thanks.
1.17

Determine from records and report aptazyme ON/OFF ratio for U7A U8G G9A U11C C12U
1.39

Given the variant U7A U8G G9U U10C C12A C13A , write its reported aptazyme ON/OFF ratio.
1.46
